- Target Under Test: Recombinant human HDAC1 (Homo sapiens, UniProt Q13547)
- Construct: FLAG (C); made in house
- Sequence (Q13547 whole entry): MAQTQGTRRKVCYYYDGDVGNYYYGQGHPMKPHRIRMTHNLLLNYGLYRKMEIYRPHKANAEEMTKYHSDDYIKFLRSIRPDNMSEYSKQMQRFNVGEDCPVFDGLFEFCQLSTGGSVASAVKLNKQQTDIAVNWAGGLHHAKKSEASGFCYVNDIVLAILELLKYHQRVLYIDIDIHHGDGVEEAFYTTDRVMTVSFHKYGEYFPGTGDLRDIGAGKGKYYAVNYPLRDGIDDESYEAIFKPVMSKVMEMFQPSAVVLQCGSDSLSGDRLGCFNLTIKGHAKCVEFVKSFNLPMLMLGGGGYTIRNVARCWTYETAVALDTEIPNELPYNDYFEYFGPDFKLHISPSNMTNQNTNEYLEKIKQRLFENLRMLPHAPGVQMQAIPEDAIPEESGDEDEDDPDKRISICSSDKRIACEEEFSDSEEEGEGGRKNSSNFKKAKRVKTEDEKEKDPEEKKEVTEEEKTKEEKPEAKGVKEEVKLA
- Procedure Details: Human HDAC enzyme inhibitor Fluor-de-Lys assay, HDAC1
- Type: biochemical
- Method: Human HDAC Enzyme Inhibitor Fluor-De-Lys Assay Recombinant human HDAC8 (BML-SE145-0100) and HDAC10 (BML-SE559-0050) enzymes, HDAC substrates BML-KI104 and BML-KI178, and HDAC developer solutions BML-KI105 and BML-KI176 were purchased from Enzo Life Sciences. […] The histone deacetylase activities of HDAC1, HDAC2, HDAC3, HDAC6, and HDAC8 were measured in modified FLUOR DE LYS assays in 384-well format. […] The released AMC is then detected by its fluorescence. […]
pIC50: −log10 of the molar value.
Label condition met when pIC50 is at or above 8; otherwise label condition not met.

Query :: Hello, I need to know if CCC(=O)CCCCC[C@H](NC(=O)C1=NOC2(CCN(C(C)C)CC2)C1)c1ncc(-c2cc3ccccc3nc2OC)[nH]1 [Compound 106] has measured pIC50 not below 8. Thanks!
Result :: condition met

Query :: Hello, I need to know if CCC(=O)CCCCC[C@H](NC(=O)[C@H]1CC12CCN(CC)CC2)c1ncc(-c2ccc3c(=O)n(CC)ccc3c2)o1 [Compound 162] has measured pIC50 not below 8. Thanks!
Result :: condition met

Query :: Hello, I need to know if CCC(=O)CCCCC[C@H](NC(=O)C1CN(C)C1)c1[nH]c(-c2ccc(F)cc2)nc1Br [Compound 65] has measured pIC50 not below 8. Thanks!
Result :: condition not met

Query :: Hello, I need to know if CCC(=O)CCCCC[C@H](NC(=O)[C@H]1CC12CCN(C)CC2)c1ncc(-c2ccc3cnc(OC)cc3c2)[nH]1 [Compound 113] has measured pIC50 not below 8. Thanks!
Result :: condition met

Query :: Hello, I need to know if CCC(=O)CCCCC[C@H](NC(=O)[C@H]1CC12CCN(C)CC2)c1ncc(-c2ccc3ncoc3c2)[nH]1 [Compound 89] has measured pIC50 not below 8. Thanks!
Result :: condition met

Query :: Hello, I need to know if CCC(=O)CCCCC[C@H](NC(=O)C1CN(C)C1)c1ncc(-c2ccc3c(c2)C2CCC3C2)[nH]1 (some centres unmarked) [Compound 73] has measured pIC50 not below 8. Thanks!
Result :: condition not met

Query :: Hello, I need to know if CCC(=O)CCCCC[C@H](N)c1ncc(-c2ccc3nc(C)ccc3c2)[nH]1 [Compound 178] has measured pIC50 not below 8. Thanks!
Result :: condition not met

Query :: Hello, I need to know if CCC(=O)CCCCC[C@H](NC(=O)[C@H]1CC12CCN(C)CC2)c1ncc(-c2ccc3ncc(Cl)cc3c2)[nH]1 [Compound 140] has measured pIC50 not below 8. Thanks!
Result :: condition met

Query :: Hello, I need to know if CCC(=O)CCCCC[C@H](NC(=O)[C@H]1CC12CCN(C)CC2)c1ncc(-c2ccc(C3CC3)nc2)[nH]1 [Compound 139] has measured pIC50 not below 8. Thanks!
Result :: condition met

Query :: Hello, I need to know if CCC(=O)CCCCC[C@H](NC(=O)C1(C)CC12CCN(C(C)C)CC2)c1ncc(-c2ccc3nc(C)ccc3c2)[nH]1 (single isomer, unassigned) [Compound 152] has measured pIC50 not below 8. Thanks!
Result :: condition met

Query :: Hello, I need to know if CCC(=O)CCCCC[C@H](NC(=O)[C@H]1CC12CCN(C)CC2)c1[nH]c(-c2ccc(F)cc2)nc1C#N [Compound 76] has measured pIC50 not below 8. Thanks!
Result :: condition met

Query :: Hello, I need to know if CCC(=O)CCCCC[C@H](NC(=O)[C@H]1CC12CCN(CC)CC2)c1ncc(-c2ccc3c(=O)n(C4CC4)ccc3c2)o1 [Compound 153] has measured pIC50 not below 8. Thanks!
Result :: condition met

meta.source: patent US12590099B2
